Assay: Drug concentration in plasma of NSG mouse xenografted with human SKOV3 cells at 125 mg/kg, po BID measured after 12 hrs by LC-MS analysis
Assay type: ADME, organism-based, SK-OV-3
observation.type: concentration at 12 h (nM)
Only the number, expressed in nM, is required.

Query string: Supply measured concentration at 12 h of C[C@H](C(=O)Nc1ccc(Cl)cc1)[C@H]1CC[C@@H](c2ccnc3ccc(F)cc32)CC1 in your reply.
Result string: 60

====

Assay: in vivo
Conditions: NSG, mouse, tumor, po, 125 mg/kg
observation.type: log10 of concentration at 120 h (log10 of the value in nM)
All values: base-10 log of concentration at 120 h in nM.

{"columns": ["chemical.smiles", "log10 of concentration at 120 h"],
 "data": [
  ["CC[C@@H](NC(=O)c1ccc(Cl)cc1)[C@H]1[C@@H]2C[C@@H](n3cnc4ccc(Cl)cc43)C[C@@H]21", 2.78],
  ["CC[C@@H](NC(=O)c1ccc(Cl)cc1)[C@H]1[C@@H]2C[C@@H](n3cnc4ccc(C#N)cc43)C[C@@H]21", 4.08],
  ["C[C@@H](NC(=O)c1ccc(Cl)cc1)[C@H]1[C@@H]2C[C@@H](n3cnc4cc(F)c(F)cc43)C[C@@H]21", 3.71],
  ["C[C@H](C(=O)Nc1ccc(Cl)cc1)[C@H]1CC[C@@H](c2ccnc3ccc(F)cc32)CC1", 2.95],
  ["CC[C@@H](NC(=O)c1ccc(Cl)cc1)[C@H]1[C@@H]2C[C@@H](n3c(C)nc4ccc(F)cc43)C[C@@H]21", 2.00]
]}

Query string: Give me measured log10 of concentration at 120 h, please, for this compound: CC[C@@H](NC(=O)c1ccc(Cl)c(F)c1)[C@H]1[C@@H]2C[C@@H](n3cnc4cc(F)c(F)cc43)C[C@@H]21
Result string: 4.04

====

The entries below are paired with their reported Cmax at 24 h.
Test: in vivo
Conditions: CD-1, mouse, po, 10 mg/kg
Please reply with the bare figure in µM and do not write the unit itself.

{"columns": ["compound", "Cmax at 24 h, µM"],
 "data": [
  ["NS(=O)(=O)NCCNc1nonc1C(=NO)Nc1ccc(F)c(Br)c1 [EPACADOSTAT]", 2]
]}

Consider now this further compound.
Query string: Identify measured Cmax at 24 h associated with C[C@H](C(=O)Nc1ccc(Cl)cc1)[C@H]1CC[C@@H](c2ccnc3ccc(F)cc32)CC1
Result string: 4.1

====

Assay: Apparent permeability across apical side to basolateral side in wild type MDCK cells
Assay type: ADME, cell-based, Canis lupus familiaris
Details: dog
observation.type: Papp A→B (×10⁻⁶ cm/s)
Your answer should be a plain number; it is taken to be in ×10⁻⁶ cm/s.

{"columns": ["molecule", "Papp A→B, ×10⁻⁶ cm/s"],
 "data": [
  ["CCC(NC(=O)c1ccc(Cl)cc1)[C@@H]1[C@@H]2C[C@@H](Oc3ccnc4ccccc34)C[C@@H]21 (some centres not stated)", 3.63]
]}

Here's the next entry for you.
Query string: Please list Papp A→B recorded for the molecule CCC(NC(=O)c1ccc(Cl)cc1)[C@H]1[C@@H]2C[C@H](Oc3ccnc4ccccc34)C[C@@H]21 (some centres not stated)
Result string: 5.53

====

Experiment: Apparent permeability across basolateral side to apical side in MDCK-MDR1 cells
Type: ADME, cell-based, Canis lupus familiaris
Settings: dog
observation.type: Papp B→A (×10⁻⁶ cm/s)
Please respond with the number in ×10⁻⁶ cm/s and leave the unit unwritten.

{"columns": ["compound", "units.of.measure", "Papp B→A"],
 "data": [
  ["CCC(NC(=O)c1ccc(Cl)cc1)[C@H]1[C@@H]2C[C@H](Oc3ccnc4ccccc34)C[C@@H]21 (some centres not stated)", "×10⁻⁶ cm/s", 2.07]
]}

# ---- query compound ----
Query string: Give the reported value of Papp B→A for this record: CCC(NC(=O)c1ccc(Cl)cc1)[C@@H]1[C@@H]2C[C@@H](Oc3ccnc4ccccc34)C[C@@H]21 (some centres not stated)
Result string: 1.4

====

Assay: AUC in rat plasma at 250 mg/kg, po QD administered for 7 days
Assay type: ADME, organism-based
Design: dose 250 mg/kg, time 7 day
observation.type: AUC at 168 h (µM·h)
Report as a plain number; the unit µM·h is understood.

Query string: Given C[C@H](C(=O)Nc1ccc(Cl)cc1)[C@H]1CC[C@@H](c2ccnc3ccc(F)cc32)CC1 , respond with its AUC at 168 h.
Result string: 95

====

Assay: Half life in mouse plasma
Format: ADME, cell-free
observation.type: half-life (h)
All answers are understood in h, so give the number only.

Query string: Give the reported value of half-life for this record: CCC(NC(=O)c1ccc(Cl)cc1)[C@@H]1[C@@H]2C[C@@H](Oc3ccnc4ccccc34)C[C@@H]21 (stereo partly specified)
Result string: 12.8

====

Assay: Apparent permeability across apical side to basolateral side in MDCK-MDR1 cells
Type: ADME, cell-based, Canis lupus familiaris
Details: dog
Recorded measurements of Papp A→B, one per entry

{"columns": ["molecule", "Papp A→B"],
 "data": [
  ["CCC(NC(=O)c1ccc(Cl)cc1)[C@H]1[C@@H]2C[C@H](Oc3ccnc4ccccc34)C[C@@H]21 (some centres not stated)", "3.7 ×10⁻⁶ cm/s"]
]}

// moving on: another record for Papp A→B
Query string: Supply recorded Papp A→B for CCC(NC(=O)c1ccc(Cl)cc1)[C@@H]1[C@@H]2C[C@@H](Oc3ccnc4ccccc34)C[C@@H]21 (some centres not stated) here.
Result string: 1.86 ×10⁻⁶ cm/s

====

Assay: in vivo
Conditions: CD1, mouse, iv, 0.3 mg/kg
observation.type: clearance (mL/min/kg)
Write it as a number; the unit mL/min/kg goes unstated.

A selection of reference data follows.
{"columns": ["compound", "observation.type", "numeric.value"],
 "data": [
  ["CCC(NC(=O)c1ccc(Cl)cc1)[C@@H]1[C@@H]2C[C@H](Oc3ccnc4ccc(F)cc34)C[C@@H]21 (stereo partly drawn)", "clearance", 0.233],
  ["CCC(NC(=O)c1ccc(Cl)cc1)[C@H]1[C@@H]2C[C@@H](n3cc(C4CC4)nn3)C[C@@H]21 (stereo partly drawn)", "clearance", 4.67]
]}

Now, please, on to the next compound.
Query string: Identify the reported clearance for the following entry. CC(NC(=O)c1ccc(C#N)cc1)[C@H]1[C@@H]2C[C@@H](Oc3ncnc4cc(F)ccc34)C[C@@H]21 (stereo partly drawn)
Result string: 0.117

====

Assay: in vitro
Details: human, liver microsomes
observation.type: CLint scaled at 0.75 h, 1 µM
Answer as a quantity: numeral, then unit.

Query string: Give a short answer stating reported CLint scaled at 0.75 h, 1 µM for CCC(NC(=O)c1ccc(Cl)cc1)[C@H]1[C@@H]2C[C@@H](n3cc(C4CC4)nn3)C[C@@H]21 (stereo not given in full) .
Result string: 6.5 mL/min/kg

====

Listed below: CLint scaled at 0.75 h, 1 µM values for each entry.
Test: in vitro
Settings: human, liver microsomes
// note: answer is a bare numeric in mL/min/kg

Query string: Tell me its CLint scaled at 0.75 h, 1 µM given O=C(NC[C@H]1[C@H]2C[C@@H](Oc3ccnc4ccc(F)cc34)C[C@@H]12)c1ccc(Cl)cc1 as the entry.
Result string: 39

Query string: Output CLint scaled at 0.75 h, 1 µM of CCC(NC(=O)c1ccc(Cl)cc1)[C@@H]1[C@@H]2C[C@H](Oc3ccnc4cc(F)ccc34)C[C@@H]21 (some centres undefined)
Result string: 32

Query string: Supply measured CLint scaled at 0.75 h, 1 µM of CCC(NC(=O)c1ccc(Cl)cc1)[C@H]1[C@@H]2C[C@@H](n3cnc(C4CC4)n3)C[C@@H]21 (some centres undefined) in your reply.
Result string: 2

Query string: Output measured CLint scaled at 0.75 h, 1 µM for this item: CC(NC(=O)c1ccc(C#N)cc1)[C@H]1[C@@H]2C[C@@H](Oc3ncnc4cc(F)ccc34)C[C@@H]21 (some centres undefined)
Result string: 17

Source: ChEMBL document CHEMBL4842341
